# Test system: mice bearing PSMA-expressing LNCAP cancer xenografts
# protocol.text: Biodistribution of 68Ga-labeled compounds
# Assay type: in vivo
# test.conditions: 3 h post-injection
Quick reference: Thyroid uptake of the listed items.

molecule	Thyroid uptake (% ID/g)
COc1ccc(CCCC(=O)NCC(=O)N[C@@H](CCCCNC(=O)CN2CCN(CC(=O)[O-])CCN(CC(=O)[O-])CCN(CC(=O)[O-])CC2)C(=O)NC[C@H]2CC[C@H](C(=O)N[C@@H](Cc3ccc4ccccc4c3)C(=O)NCCCC[C@H](NC(=O)N[C@@H](CCC(=O)O)C(=O)O)C(=O)O)CC2)cc1.[68Ga+3] [^68Ga-HTK03086]	1.39
O=C([O-])CN1CCN(CC(=O)[O-])CCN(CC(=O)NCCCC[C@H](NC(=O)CNC(=O)CCCc2ccccc2)C(=O)NC[C@H]2CC[C@H](C(=O)N[C@@H](Cc3ccc4ccccc4c3)C(=O)NCCCC[C@H](NC(=O)N[C@@H](CCC(=O)O)C(=O)O)C(=O)O)CC2)CCN(CC(=O)[O-])CC1.[68Ga+3] [^68Ga-HTK03056]	0.72
O=C([O-])CN1CCN(CC(=O)[O-])CCN(CC(=O)NCCCC[C@H](NC(=O)CNC(=O)CCc2ccccc2)C(=O)NC[C@H]2CC[C@H](C(=O)N[C@@H](Cc3ccc4ccccc4c3)C(=O)NCCCC[C@H](NC(=O)N[C@@H](CCC(=O)O)C(=O)O)C(=O)O)CC2)CCN(CC(=O)[O-])CC1.[68Ga+3] [^68Ga-HTK03082]	0.16

Cited source for all entries: patent US20200339625A1
